Record form. Attribute: max response. Fill in for each entry.
Target: DNA dC->dU-editing enzyme APOBEC-3F (Homo sapiens)
Test: qHTS for inhibitors of Vif-A3F interactions: Cherry picks;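 also: % of control where 0% means no effect; active compounds raise eYFP fluorescence by blocking Vif-driven A3F loss; nearly all actives have a fitted effect of over 70% in size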
Details: HeLa A3F-eYFP + Vif (tagged APOBEC3F with the HIV-1 protein that degrades it), eYFP fluorescence, 24 h
From the text: The recent discovery and characterization of host restriction factors, which provide a potent defense to invading retroviruses, has provided new targets for antiviral drug development. […] In the presence of an inhibitor, it is expected that Vif will be unable to degrade A3G-eYFP and/or A3F-eYFP, resulting in an increase in yellow fluorescence. […]
Out of some 2,100 compounds screened, about 590 (28%) were called active. Roughly 42% stayed inconclusive and do not appear here. Some of the results follow.
// return numeric value only (unit: %, not printed)

Q) Report max response for c1ccc2c(c1)nc(NCC1CCCO1)c1nnnn12 (centres undefined) please.
A) -11.8

Q) Do the same for "S=C(NCc1ccco1)Nc1ccc(Cl)cn1" please
A) -0.0392

Q) Do the same for COc1ccc(NC(=O)C2Cc3c(-c4ccc(NC(C)=O)cc4)ccnc3O2)cn1 (centres undefined) please
A) -27.7

Q) Do the same for "C/C(=N\Nc1nccnc1Cl)c1ccc(Cl)c(Cl)c1" please
A) 0.009
